Reference source for all entries: ChEMBL document CHEMBL4229565

- experiment.summary: Tmax in NMRI mouse at 50 mg/kg, po administered via gavage by UPLC/MS/MS analysis
- Type: ADME, organism-based
- experimental.parameters: in vivo
property: Tmax (h)
Give the number; h is assumed, so skip it.

Specify measured Tmax for CC(C)Cc1ccc2nn(C)cc2c1NS(=O)(=O)c1ccc(CCCCC2CCN(C)CC2)cc1 .
1

###

- Tested on: human NMT1 versus Trypanosoma brucei NMT
- experiment.summary: Selectivity ratio of IC50 for human NMT1 to IC50 for Trypanosoma brucei NMT
- Format: toxicity
- experimental.parameters: read-out: Ratio IC50
property: selectivity ratio

| molecular.string | selectivity ratio |
| --- | --- |
| CN1CCC(CCCCc2ccc(S(=O)(=O)Nc3c(N4CCCC4)ccc4ncccc34)cc2)CC1 | 110 |

Specify measured selectivity ratio for COC(=O)c1ccc(N2CCCCCC2)c(NS(=O)(=O)c2ccc(OC)cc2)c1 .
> 100

Specify measured selectivity ratio for O=S(=O)(Nc1c(CC2CCCCC2)ccc2ncccc12)c1ccc(Br)cc1 .
> 71

Specify measured selectivity ratio for Cn1cc2c(NS(=O)(=O)c3ccc(Br)cc3)c(C3CCCC3)ccc2n1 .
> 3.8

Specify measured selectivity ratio for CCC(CC)c1ccc2ncccc2c1NS(=O)(=O)c1ccc(Br)cc1 .
> 17

Specify measured selectivity ratio for O=S(=O)(Nc1c(N2CCCC2)ccc2ncccc12)c1ccc(Br)cc1 .
5.5

Specify measured selectivity ratio for CC(C)Cc1ccc2ncccc2c1NS(=O)(=O)c1ccc(Br)cc1 .
> 59
